Ref: patent US8697731B2

# Test system: VEGF
# method.summary: Measurement of the secretion of VEGF by Hep3B hepatocytes (ELISA)
# Format: cell-based
# experimental.setup: Homo sapiens, supernatant of Hep3B cells, 18 hours under normoxia, concentration that produces 50% of the maximum response of this same compound
Below, each entry is listed with its recorded EC50.
Quick reminder: number only, in nM, skip the unit.

- molecule: "CCN(c1ccccc1)S(=O)(=O)c1ccc(-n2[nH]c3c(c2=O)CN(C(C)=O)CC3)nc1 [Compound 29]"
  EC50 / nM: 2600
- molecule: "CN(c1ccccn1)S(=O)(=O)c1ccc(-n2[nH]c3c(c2=O)CSC3)nc1 [Compound 21]"
  EC50 / nM: 2400

As a next step, examine the molecule that follows.
For the molecule CCN(c1ccccc1)S(=O)(=O)c1ccc(-n2[nH]c3c(c2=O)CSCC3)nc1 [Compound 13] , what EC50 is on record?
1000

----------
Below, each entry is listed with its recorded melting point.
Where a name gives a salt, the structure may show the parent alone.
Quick reminder: number only, in °C, skip the unit.

- compound: "CCN(c1ccccc1)S(=O)(=O)c1ccc(-n2[nH]c3c(c2=O)CN(C(=O)OC(C)(C)C)CC3)nc1 [Compound 28]"
  melting point, °C: 192
- compound: "CC(C)c1ccnc(-n2[nH]c3c(c2=O)CSC3)c1 [Compound 65]"
  melting point, °C: 92
- compound: "CC(C)NS(=O)(=O)c1ccc(-n2[nH]c3c(c2=O)CSC3)nc1 [Compound 17]"
  melting point, °C: 258
- compound: "CN(C(C)(C)C)S(=O)(=O)c1ccc(-n2nc3c(c2O)CSC3)nc1 (as salt: Na) [Compound 36]"
  melting point, °C: 130
- compound: "CC(C)(C)NS(=O)(=O)c1ccc(-n2[nH]c3c(c2=O)CSC3)nc1 [Compound 18]"
  melting point, °C: 257
- compound: "COC1CCc2c1[nH]n(-c1ccccn1)c2=O (centres unmarked) [Compound 11]"
  melting point, °C: 76
- compound: "O=c1c2c([nH]n1-c1ccc(S(=O)(=O)NCc3ccco3)cn1)CSC2 [Compound 19]"
  melting point, °C: 238
- compound: "CN(Cc1ccccn1)S(=O)(=O)c1ccc(-n2[nH]c3c(c2=O)CSC3)nc1 (as salt: HCl) [Compound 27]"
  melting point, °C: 198
- compound: "O=c1c2c([nH]n1-c1ccc(S(=O)(=O)N(CC(O)CO)C3CCCC3)cn1)CSC2 (centres unmarked) [Compound 53]"
  melting point, °C: 190
- compound: "CCN(c1ccccc1)S(=O)(=O)c1ccc(-n2[nH]c3c(c2=O)CSCC3)nc1 [Compound 13]"
  melting point, °C: 176

For the compound CC(C)(C)COC(=O)c1ccc(-n2[nH]c3c(c2=O)CN(S(C)(=O)=O)CC3)nc1 [Compound 54] , what melting point is on record?
230

For the compound CN(c1ccccn1)S(=O)(=O)c1ccc(-n2[nH]c3c(c2=O)CSC3)nc1 [Compound 21] , what melting point is on record?
226

For the compound O=c1c2c([nH]n1-c1ccccn1)CCC2 [Compound 7] , what melting point is on record?
156

----------
Structures can show the parent of a compound that is named as a salt.
Below, each entry is listed with its recorded melting point.

For the compound COc1ccc(-n2nc3c(c2[O-])CSC3)nc1.[Na+] , what melting point is on record?
> 220 °C

For the compound Cc1ccc(-n2nc3c(c2[O-])CSC3)nc1.[Na+] , what melting point is on record?
> 220 °C

For the compound CCc1ccnc(-n2[nH]c3c(c2=O)CSC3)c1 (as salt: Na) , what melting point is on record?
> 260 °C

----------
Below, each entry is listed with its recorded melting point.
Where a name gives a salt, the structure may show the parent alone.

Here is how some compounds turned out for melting point.
- compound: "CCN(c1ccccc1)S(=O)(=O)c1ccc(-n2nc3c(c2O)N(Cc2ccccc2)C(=O)CC3)nc1 (as salt: Na) [Compound 35]"
  observable: "melting point"
  experimental.result: "> 250 °C"
- compound: "O=c1c2c([nH]n1-c1ccc(S(=O)(=O)Nc3ccccn3)cn1)CSC2 [Compound 23]"
  observable: "melting point"
  experimental.result: "> 260 °C"
- compound: "Oc1c2c(nn1-c1cc(OCc3cccnc3)ccn1)CSC2 (as salt: Na) [Compound 64]"
  observable: "melting point"
  experimental.result: "> 260 °C"

For the compound O=c1c2c([nH]n1-c1ccc(S(=O)(=O)NC3CCCC3)cn1)CSC2 [Compound 20] , what melting point is on record?
> 260 °C
